Tested on: HepG2 cells
method description: in vitro
Type: cell-based
test settings: HepG2 or HepG2.117 cells, ATPlite, 3-days incubation (not marked with *), mean value; read-out: CC50 (μM, mean value)
compounds and their reported CC50

Bench note: what CC50 did Cc1c[nH]c(-c2ccc(-n3c(NC(C)C)nc4c(c3=O)C[C@@H](C)N(C(=O)c3ccc(Cl)c(Cl)c3)C4)c(Cl)c2)n1 (single isomer, unassigned) [Compound C455b] show?
> 50 µM

Now consider CNC(=O)c1cnc(-n2c(N[C@@H](C)c3ccc(OC(F)(F)F)cc3)nc3c(c2=O)C[C@@H](C)N(C(=O)c2ccc(Cl)c(Cl)c2)C3)cn1 and answer again.
> 50 µM

Now consider CNC(=O)c1ccc(-n2c(N[C@H]3C[C@@H]3c3ccc(OC)cc3)nc3c(c2=O)C[C@@H](C)N(C(=O)c2ccc(Cl)c(Cl)c2)C3)cc1 [Compound C452b] and answer again.
> 50 µM

---

method description: in vitro
Format: cell-based
test settings: human, HepG2 or HepG2.117 cells, ATPlite, 3-days incubation (not marked with *), mean value
molecules and their reported CC50 at 3 days

Examples from the recorded data:
molecule=CNc1noc2cc(-n3c(N[C@@H](C)c4ccc(C(F)(F)F)cc4)nc4c(c3=O)C[C@@H](C)N(C(=O)c3ccc(Cl)c(Cl)c3)C4)ccc12 value_observed="> 50 µM"
molecule="CNC(=O)c1ccc(-n2c(N[C@H](C)c3ccc(F)cc3F)nc3c(c2=O)C[C@@H](C)N(C(=O)c2ccc(Cl)c(Cl)c2)C3)cc1 (single isomer, unassigned) [Compound C689a]" value_observed="16.7 µM"

API: the following record is the query input.
Bench note: what CC50 at 3 days did CNC(=O)c1ccc(-n2c(NCc3cccc(-c4nnc[nH]4)c3)nc3c(c2=O)C[C@@H](C)N(C(=O)c2ccc(Cl)c(Cl)c2)C3)cc1 show?
> 50 µM

---

molecules and their reported EC50
Tested on: HBV (HepG2.117 cell line, inducibly HBV producing)
method description: Anti-HBV activity: intracellular HBV DNA by real-time PCR in HepG2.117 cells after 3 days of treatment
Type: cell-based, hepatitis B virus
test settings: Hepatitis B virus, HepG2.117, 72 h, HepG2.117 cells, 3 days of treatment, intracellular HBV DNA by real-time PCR; mean value; read-out: EC50 (μM, mean value)
Give your result as the value with the unit written after it.

Examples from the recorded data:
molecule=CNC(=O)c1ccc(-n2c(N3CC4(CCC4)C3)nc3c(c2=O)C[C@@H](C)N(C(=O)c2ccc(Cl)c(Cl)c2)C3)cc1 endpoint_label=EC50 value_observed="1.46 µM"
molecule=CC(C)Nc1nc2c(c(=O)n1-c1ccc(S(C)(=O)=O)cc1)CCN(C(=O)c1ccc(Cl)c(C(C)C)c1)C2 endpoint_label=EC50 value_observed="1.45 µM"
molecule="CC[C@@H]1Cc2c(nc(NC(C)C)n(-c3ccc(S(C)(=O)=O)cc3)c2=O)CN1C(=O)c1ccc(Cl)c(Cl)c1 (single isomer, unassigned) [Compound C158A]" endpoint_label=EC50 value_observed="0.91 µM"
molecule=COc1ccc(CNc2nc3c(c(=O)n2-c2ccc(S(C)(=O)=O)nc2)CCN(C(=O)c2ccc(Cl)c(Cl)c2)C3)cc1 endpoint_label=EC50 value_observed="0.39 µM"
molecule=CC(C)Nc1nc2c(c(=O)n1-c1ccc(-c3ccns3)cc1)C[C@@H](C)N(C(=O)c1ccc(Cl)c(Cl)c1)C2 endpoint_label=EC50 value_observed="0.26 µM"
molecule=CNC(=O)c1ccc(-n2c(N3CCC3(C)C)nc3c(c2=O)C[C@@H](C)N(C(=O)c2ccc(Cl)c(Cl)c2)C3)cc1 endpoint_label=EC50 value_observed="0.07 µM"
molecule=COc1ccccc1-n1c(NC2CCC2)nc2c(c1=O)CCN(C(=O)c1ccc(Cl)c(Cl)c1)C2 endpoint_label=EC50 value_observed="19.9 µM"
molecule=CNC(=O)c1ccc(-n2c(N[C@H]3CC3(C)C)nc3c(c2=O)C[C@@H](C)N(C(=O)c2ccc(Cl)c(Cl)c2)C3)cc1 endpoint_label=EC50 value_observed="1.89 µM"
molecule=CC(C)NC(=O)c1ccc(-n2c(NC(C)C)nc3c(c2=O)C[C@@H](C)N(C(=O)c2ccc(Cl)c(Cl)c2)C3)cn1 endpoint_label=EC50 value_observed="0.18 µM"
molecule=CC(C)Nc1nc2c(c(=O)n1-c1ccc3c(c1)CNC3=O)C[C@@H](C)N(C(=O)c1ccc(Cl)c(Cl)c1)C2 endpoint_label=EC50 value_observed="0.15 µM"

Bench note: what EC50 did CC(C)Nc1nc2c(c(=O)n1-c1ccc(S(C)(=O)=O)cc1)CCN(C(=O)c1ccc3ncoc3c1)C2 show?
10.7 µM

Now consider Cc1ncccc1-n1c(NC(C)C)nc2c(c1=O)CCN(C(=O)c1ccc(Cl)c(Cl)c1)C2 and answer again.
2.05 µM

Now consider COc1ccccc1-n1c(NCCc2ccccc2)nc2c(c1=O)CCN(C(=O)c1ccc(Cl)c(Cl)c1)C2 and answer again.
8.92 µM

Now consider CC(C)Nc1nc2c(c(=O)n1-c1ccc(Br)cc1)C[C@@H](C)N(C(=O)c1ccc(Cl)c(Cl)c1)C2 and answer again.
0.21 µM

Now consider Cc1nc(-c2ccc(-n3c(NC(C)C)nc4c(c3=O)C[C@@H](C)N(C(=O)c3ccc(Cl)c(Cl)c3)C4)cc2)c[nH]1 and answer again.
0.12 µM

Now consider CC(C)Nc1nc2c(c(=O)n1-c1ccc(C(=O)N3CCN(C)CC3)cc1)C[C@@H](C)N(C(=O)c1ccc(Cl)c(Cl)c1)C2 and answer again.
0.15 µM

Now consider COCCn1c(NCc2ccc(OC)cc2)nc2c(c1=O)CCN(C(=O)c1ccc(Cl)c(Cl)c1)C2 and answer again.
4.35 µM

Now consider Cc1noc(-c2ccc(-n3c(NC(C)C)nc4c(c3=O)C[C@@H](C)N(C(=O)c3ccc(Cl)c(Cl)c3)C4)cc2)n1 and answer again.
0.13 µM

Now consider CC(C)N(CCO)c1nc2c(c(=O)[nH]1)CCN(C(=O)c1ccc(Cl)c(Cl)c1)C2 and answer again.
3.22 µM

---

molecules and their reported EC50
Test system: HBV (HepG2.117 cell line, inducibly HBV producing)
method description: Anti-HBV activity: intracellular HBV DNA by real-time PCR in HepG2.117 cells after 3 days of treatment
Type: cell-based, hepatitis B virus
test settings: Hepatitis B virus, HepG2.117, 72 h, HepG2.117 cells, 3 days of treatment, intracellular HBV DNA by real-time PCR; mean value; read-out: EC50 (μM, mean value)
Numbers only; they are read as µM.

Examples from the recorded data:
molecule=COc1ccc(CNc2nc3c(c(=O)n2-c2ccc(Br)cc2)CCN(C(=O)c2ccc(Cl)c(Cl)c2)C3)cc1 system_name="HBV (HepG2.117 cell line, inducibly HBV producing)" value_observed=1.64
molecule=CC(C)Nc1nc2c(c(=O)n1-c1ccc(C(=O)N3CCOCC3)cc1)C[C@@H](C)N(C(=O)c1ccc(Cl)c(Cl)c1)C2 system_name="HBV (HepG2.117 cell line, inducibly HBV producing)" value_observed=0.24

API: the following record is the query input.
Bench note: what EC50 did CNC(=O)OCC[C@H](Nc1nc2c(c(=O)n1-c1ccc(C(=O)NC)cc1)C[C@@H](C)N(C(=O)c1ccc(Cl)c(Cl)c1)C2)C1CC1 (single isomer, unassigned) show?
0.84

---

compounds and their reported CC50 at 3 days
method description: in vitro
Format: cell-based
test settings: human, HepG2 or HepG2.117 cells, 3-days incubation (unmarked values), ATPlite; mean value
Numbers only; they are read as µM.

Examples from the recorded data:
compound=COc1ccc(CNc2nc3c(c(=O)[nH]2)CCN(C(=O)c2ccc(Br)c(C)c2)C3)cc1 endpoint_label="CC50 at 3 days" unit_text=µM value_observed=24.1
compound="CNC(=O)c1ccc(-n2c(N[C@@H](c3ccccc3)C3CC3)nc3c(c2=O)C[C@@H](C)N(C(=O)c2ccc(Cl)c(Cl)c2)C3)cc1 (single isomer, unassigned)" endpoint_label="CC50 at 3 days" unit_text=µM value_observed=16
compound=COc1ccccc1-n1c(NC2CCC2)nc2c(c1=O)CCN(C(=O)c1ccc(Cl)c(Cl)c1)C2 endpoint_label="CC50 at 3 days" unit_text=µM value_observed=29.5

API: the following record is the query input.
Bench note: what CC50 at 3 days did COCCn1c(NCc2ccccc2)nc2c(c1=O)CCN(C(=O)c1ccc(Cl)c(Cl)c1)C2 show?
25.2

---

method description: in vitro
Format: cell-based
test settings: human, HepG2 or HepG2.117 cells, 3-days incubation (unmarked values), ATPlite; mean value
endpoint label: CC50 at 3 days (µM)
Numbers only; they are read as µM.

Examples from the recorded data:
smiles_structure=CNC(=O)c1ccc(-n2c(N3CCC34CCC4)nc3c(c2=O)C[C@@H](C)N(C(=O)c2ccc(Cl)c(Cl)c2)C3)cc1 value_observed=28.3
smiles_structure=COc1ccccc1-n1c(OC)nc2c(c1=O)CCN(C(=O)c1ccc(Cl)c(Cl)c1)C2 value_observed=29.7
smiles_structure=CNC(=O)c1cc(-n2c(NC(C)C)nc3c(c2=O)C[C@@H](C)N(C(=O)c2ccc(Cl)c(Cl)c2)C3)[nH]n1 value_observed=34.2
smiles_structure=COc1ccccc1-n1c(NCC2CC2)nc2c(c1=O)CCN(C(=O)c1ccc(Cl)c(Cl)c1)C2 value_observed=26.7

API: the following record is the query input.
Bench note: what CC50 at 3 days did COc1ccc(CNc2nc3c(c(=O)n2CC2CCOCC2)CCN(C(=O)c2ccc(Cl)c(Cl)c2)C3)cc1 show?
37.8

Data provenance is patent US20230091047A1.
